target: Nsp3 ADRP (SARS-CoV-2, UniProt P0DTD1 819-2763); assay: FP
Result type: pKd
By convention, pKd is the negative base-10 log of a molar concentration.

query: Provide one value: measured pKd of GSTYLHPLSELLGIPL [MBOAT1_(16–31)]
result: 3.98
